Test system: IGROV1 ovarian
Experiment: NCI tumour cell line growth inhibition, 48 h; in the data active = GI50 below about 0.43 µM; inactive = the rest
Labels: active, inactive

>>> classname("NS(=O)(=O)c1cccc(-c2cc3ccncc3cc2OCc2ccccc2)c1")
"inactive"
>>> classname("CC(N)CN.CC(N)CN.[Cl-].[O]=[Os+2]=[O] (stereo not drawn)")
"inactive"
>>> classname("Cc1ccc(-c2c3c(N)nc(-c4ccncc4)nc3nc3c2c(C)nn3-c2ccccc2)cc1")
"inactive"
>>> classname("COc1cc(-c2nccc3[nH]c(-c4cccc5[nH]ccc45)nc23)cc(OC)c1OC")
"active"
>>> classname("C[C@@H](Oc1cc(-c2cnn(C3CC4(CNC4)C3)c2)cnc1N)c1c(Cl)ccc(F)c1Cl")
"inactive"
>>> classname("Nc1ncnc2c1nc(N)n2C1OC(CO)C(O)C1O (stereo not drawn)")
"active"
>>> classname("[CH3][Sn]([CH3])([CH3])[O]C(=O)C(O)c1ccccc1 (stereo not drawn)")
"inactive"
>>> classname("Cc1cc(C(=O)N2CCN(C)CC2)c2c(=O)n(-c3ccccc3)c(=O)n(CC(O)CN3CCN(c4ncccn4)CC3)c2n1 (stereo not drawn)")
"inactive"
